biological target: UniProt P13423; test: biochemical; assay type: binding; conditions: Half saturation constant Ks
Measure: Kd (µM)
Give your result in µM as a bare value.

Query string: # query: Kd | item O=[N+]([O-])c1ccc(-c2c[n+]3ccccc3n2-c2ccc(O)cc2)cc1 [HA1383] | system: UniProt P13423
Result string: 1.34

###

target: PA63-channel (Bacillus anthracis); assay: biochemical; format: binding; conditions: Half saturation constant KS
Lab note: cut-off is 60 µM. Strictly less in Kd is 1. Exactly 60 µM or more is -1.

Worked set:
Smiles Code	Assigned Category
O=[N+]([O-])c1ccc(-c2c[n+]3ccccc3n2-c2ccc(O)cc2)cc1	1
Clc1ccc(OCn2cc[n+]3ccccc23)c(Cl)c1	1
Brc1ccc(-c2csc3cccc[n+]23)cc1	1
CCOC(=O)c1ccc(-n2c(-c3ccc(Br)cc3)c[n+]3cccc(O)c23)cc1	1
O=c1c2ccccc2[n+]2ccccc2n1Cc1cccc2ccccc12	-1
COc1ccc(-n2c(=S)n(-c3ccc([N+](=O)[O-])cc3)c3cccc[n+]32)cc1	-1
O=[N+]([O-])c1cccc(-n2c(-c3ccc(Br)cc3)c[n+]3ccccc23)c1	1
O=C(C[n+]1ccccc1Cl)c1ccc([N+](=O)[O-])cc1	-1

Query string: For this molecule, is Kd lower than 60 µM? Cn1c(COc2ccc(Cl)cc2)n[n+]2ccccc12
Result string: -1

Query string: Please check: Kd for Clc1ccc(OCn2cn[n+]3ccccc23)c(Cl)c1 , strictly under 60 µM or not?
Result string: 1

Query string: Threshold test, Kd < 60 µM: Clc1cc(Cl)c(-n2nnc3cccc[n+]32)c(Cl)c1
Result string: -1

Query string: Does this molecule meet the criterion Kd < 60 µM? Clc1ccc(-n2nnc3ccc4ccccc4[n+]32)c(Cl)c1
Result string: -1

###

target: PA63-channel (Bacillus anthracis, UniProt P13423); assay: biochemical; type: binding; conditions: pH 6
Sequence (P13423 197-764 limits assumed): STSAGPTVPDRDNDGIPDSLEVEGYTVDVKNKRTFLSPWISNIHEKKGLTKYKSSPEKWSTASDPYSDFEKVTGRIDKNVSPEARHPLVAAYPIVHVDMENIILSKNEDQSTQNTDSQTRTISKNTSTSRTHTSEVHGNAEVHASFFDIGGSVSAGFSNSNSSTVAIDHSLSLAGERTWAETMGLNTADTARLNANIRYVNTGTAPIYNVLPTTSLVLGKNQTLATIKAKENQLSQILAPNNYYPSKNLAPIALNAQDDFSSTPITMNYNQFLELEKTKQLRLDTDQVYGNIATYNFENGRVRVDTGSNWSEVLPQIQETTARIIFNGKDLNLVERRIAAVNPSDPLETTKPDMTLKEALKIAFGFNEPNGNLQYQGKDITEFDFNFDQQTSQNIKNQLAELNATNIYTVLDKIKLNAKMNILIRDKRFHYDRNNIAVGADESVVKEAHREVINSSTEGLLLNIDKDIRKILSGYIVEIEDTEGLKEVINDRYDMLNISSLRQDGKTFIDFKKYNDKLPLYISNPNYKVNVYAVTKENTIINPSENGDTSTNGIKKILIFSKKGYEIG
Measure: Stability constant K

Smiles Code	Target Or Test System	Endpoint Result
Clc1ccc(OCn2cc[n+]3ccccc23)c(Cl)c1	PA63-channel (Bacillus anthracis, UniProt P13423)	38,000 L/mol
Clc1ccc(OCn2cn[n+]3ccccc23)c(Cl)c1	PA63-channel (Bacillus anthracis, UniProt P13423)	29,400 L/mol
Brc1ccc(-c2csc3cccc[n+]23)cc1	PA63-channel (Bacillus anthracis, UniProt P13423)	18,500 L/mol
Cn1c(COc2ccc(Cl)cc2)n[n+]2ccccc12	PA63-channel (Bacillus anthracis, UniProt P13423)	3,800 L/mol
COc1ccc([N+](=O)[O-])cc1-n1nnc2cccc[n+]21	PA63-channel (Bacillus anthracis, UniProt P13423)	7,000 L/mol
Clc1cc(Cl)c(-n2nnc3cccc[n+]32)c(Cl)c1	PA63-channel (Bacillus anthracis, UniProt P13423)	11,800 L/mol
O=[N+]([O-])c1cccc(-n2c(-c3ccc(Br)cc3)c[n+]3ccccc23)c1	PA63-channel (Bacillus anthracis, UniProt P13423)	274,000 L/mol
COc1ccc(-n2c(=S)n(-c3ccc([N+](=O)[O-])cc3)c3cccc[n+]32)cc1	PA63-channel (Bacillus anthracis, UniProt P13423)	10,800 L/mol
Clc1ccc(-n2nnc3ccc4ccccc4[n+]32)c(Cl)c1	PA63-channel (Bacillus anthracis, UniProt P13423)	6,000 L/mol
O=C(C[n+]1ccccc1Cl)c1ccc([N+](=O)[O-])cc1	PA63-channel (Bacillus anthracis, UniProt P13423)	3,200 L/mol

Query string: Look at this compound and give its reported Stability constant K. O=c1[nH]c2cccc[n+]2c2ccccc12
Result string: 500 L/mol

Query string: Requested field: Stability constant K. Item: O=c1c2ccccc2[n+]2ccccc2n1Cc1cccc2ccccc12
Result string: 7,900 L/mol

Query string: Entry CCOC(=O)c1ccc(-n2c(-c3ccc(Br)cc3)c[n+]3cccc(O)c23)cc1 : reported Stability constant K = ?
Result string: 82,900 L/mol
